This collection of values is drawn from patent US5298495A.

tested on: rat erytrocytes; assay: Hemolytic activity on rat erythrocytes; format: cell-based
Quick reference for Hemolytic con. total (THC) among some molecules
Quantity Kind: Hemolytic con. total (THC) (µg/mL)

[
  {
    "Molecule": "CNc1ccc(C(=O)CC(O)CCC(C)C2OC(=O)CC(O)CC(=O)CC(O)CC(O)CC(O)CC(O)CC3(O)CC(O)C(C(=O)OC)C(CC(OC4OC(C)C(O)C(NC(=O)CN5CCN(C)CC5)C4O)C=CC=CC=CC=CC=CC=CC=CC2C)O3)cc1 (stereo not shown) [Partr. A, drawing 38, OCH3]",
    "Tested On": "rat erytrocytes",
    "Relation": "=",
    "Measured Number": 18
  },
  {
    "Molecule": "CNc1ccc(C(=O)CC(O)CCC(C)C2OC(=O)CC(O)CC(=O)CC(O)CC(O)CC(O)CC(O)CC3(O)CC(O)C(C(=O)NCCc4ccccn4)C(CC(OC4OC(C)C(O)C(NC(=O)CCN5CCCCC5)C4O)C=CC=CC=CC=CC=CC=CC=CC2C)O3)cc1 (stereo not shown) [Partr. A, drawing 51, drawing 52]",
    "Tested On": "rat erytrocytes",
    "Relation": ">",
    "Measured Number": 18
  },
  {
    "Molecule": "CNc1ccc(C(=O)CC(O)CCC(C)C2OC(=O)CC(O)CC(=O)CC(O)CC(O)CC(O)CC(O)CC3(O)CC(O)C(C(=O)NCCN(C)C)C(CC(OC4OC(C)C(O)C(NC(=O)CCN5CCCCC5)C4O)C=CC=CC=CC=CC=CC=CC=CC2C)O3)cc1 (stereo not shown) [Partr. A, drawing 33, NHCH2 CH2N(CH3)2]",
    "Tested On": "rat erytrocytes",
    "Relation": "=",
    "Measured Number": 18
  },
  {
    "Molecule": "CNc1ccc(C(=O)CC(O)CCC(C)C2OC(=O)CC(O)CC(=O)CC(O)CC(O)CC(O)CC(O)CC3(O)CC(O)C(C(=O)NCCN(C)C)C(CC(OC4OC(C)C(O)C(NC(=O)CN5CCN(CCO)CC5)C4O)C=CC=CC=CC=CC=CC=CC=CC2C)O3)cc1 (stereo not shown) [Partr. A, drawing 45, NHCH2 CH2N(CH3)2]",
    "Tested On": "rat erytrocytes",
    "Relation": "=",
    "Measured Number": 18
  }
]

====

tested on: rat erytrocytes; assay: Hemolytic activity on rat erythrocytes; format: cell-based
Quick reference for Hemolytic con. total (THC) among some molecules
Quantity Kind: Hemolytic con. total (THC)

[
  {
    "Molecule": "CNc1ccc(C(=O)CC(O)CCC(C)C2OC(=O)CC(O)CC(=O)CC(O)CC(O)CC(O)CC(O)CC3(O)CC(O)C(C(=O)NCCc4ccccn4)C(CC(OC4OC(C)C(O)C(NC(=O)CN(C)C)C4O)C=CC=CC=CC=CC=CC=CC=CC2C)O3)cc1 (stereo not shown) [Partr. A, COCH2N(CH3)2, drawing 50]",
    "Result": "> 18 µg/mL"
  },
  {
    "Molecule": "CNc1ccc(C(=O)CC(O)CCC(C)C2OC(=O)CC(O)CC(=O)CC(O)CC(O)CC(O)CC(O)CC3(O)CC(O)C(C(=O)OC)C(CC(OC4OC(C)C(O)C(NC(=O)CN5CCN(CCO)CC5)C4O)C=CC=CC=CC=CC=CC=CC=CC2C)O3)cc1 (stereo not shown) [Partr. A, drawing 44, OCH3]",
    "Result": "18 µg/mL"
  },
  {
    "Molecule": "CNc1ccc(C(=O)CC(O)CCC(C)C2OC(=O)CC(O)CC(=O)CC(O)CC(O)CC(O)CC(O)CC3(O)CC(O)C(C(=O)N4CCN(CCO)CC4)C(CC(OC4OC(C)C(O)C(NC(=O)CCN5CCCCC5)C4O)C=CC=CC=CC=CC=CC=CC=CC2C)O3)cc1 (stereo not shown) [Partr. A, drawing 34, drawing 35]",
    "Result": "2 µg/mL"
  },
  {
    "Molecule": "CNc1ccc(C(=O)CC(O)CCC(C)C2OC(=O)CC(O)CC(=O)CC(O)CC(O)CC(O)CC(O)CC3(O)CC(O)C(C(=O)NCCCN(C)C)C(CC(OC4OC(C)C(O)C(NC(=O)CN(C)C)C4O)C=CC=CC=CC=CC=CC=CC=CC2C)O3)cc1 (stereo not shown)",
    "Result": "10.4 µg/mL"
  }
]

====

tested on: rat erytrocytes; test: Hemolytic activity on rat erythrocytes; assay type: cell-based
Quick reference for Hemolytic con. total (THC) among some compounds

[
  {
    "Compound": "CNc1ccc(C(=O)CC(O)CCC(C)C2OC(=O)CC(O)CC(=O)CC(O)CC(O)CC(O)CC(O)CC3(O)CC(O)C(C(=O)N4CCN(C)CC4)C(CC(OC4OC(C)C(O)C(NC(=O)CCN5CCCCC5)C4O)C=CC=CC=CC=CC=CC=CC=CC2C)O3)cc1 (stereo not shown) [Partr. A, drawing 36, drawing 37]",
    "Tested On": "rat erytrocytes",
    "Hemolytic con. total (THC)": "3.5 µg/mL"
  },
  {
    "Compound": "CNc1ccc(C(=O)CC(O)CCC(C)C2OC(=O)CC(O)CC(=O)CC(O)CC(O)CC(O)CC(O)CC3(O)CC(O)C(C(=O)OC)C(CC(OC4OC(C)C(O)C(NC(=O)CCN5CCCCC5)C4O)C=CC=CC=CC=CC=CC=CC=CC2C)O3)cc1 (stereo not shown) [Partr. A, drawing 32, OCH3]",
    "Tested On": "rat erytrocytes",
    "Hemolytic con. total (THC)": "18 µg/mL"
  },
  {
    "Compound": "CNc1ccc(C(=O)CC(O)CCC(C)C2OC(=O)CC(O)CC(=O)CC(O)CC(O)CC(O)CC(O)CC3(O)CC(O)C(C(=O)NCCN(C)C)C(CC(OC4OC(C)C(O)C(NC(=O)CN5CCN(C)CC5)C4O)C=CC=CC=CC=CC=CC=CC=CC2C)O3)cc1 (stereo not shown) [Partr. A, drawing 39, NHCH2 CH2N(CH3)2]",
    "Tested On": "rat erytrocytes",
    "Hemolytic con. total (THC)": "18 µg/mL"
  },
  {
    "Compound": "CNc1ccc(C(=O)CC(O)CCC(C)C2OC(=O)CC(O)CC(=O)CC(O)CC(O)CC(O)CC(O)CC3(O)CC(O)C(C(=O)N4CCN(CCO)CC4)C(CC(OC4OC(C)C(O)C(NC(=O)CN5CCN(CCO)CC5)C4O)C=CC=CC=CC=CC=CC=CC=CC2C)O3)cc1 (stereo not shown) [Partr. A, drawing 46, drawing 47]",
    "Tested On": "rat erytrocytes",
    "Hemolytic con. total (THC)": "0.7 µg/mL"
  }
]

====

assay: Acute toxicity in mice (DL50); assay type: in vivo; conditions: mouse, in vivo, ip, read-out: DL50 mice i.p.
Quantity Kind: LD50

[
  {
    "Compound": "CNc1ccc(C(=O)CC(O)CCC(C)C2OC(=O)CC(O)CC(=O)CC(O)CC(O)CC(O)CC(O)CC3(O)CC(O)C(C(=O)NCCN(C)C)C(CC(OC4OC(C)C(O)C(NC(=O)CN5CCN(C)CC5)C4O)C=CC=CC=CC=CC=CC=CC=CC2C)O3)cc1 (stereo not shown) [Partr. A, drawing 39, NHCH2 CH2N(CH3)2]",
    "Quantity Kind": "LD50",
    "Result": "> 100 mg/kg"
  },
  {
    "Compound": "CNc1ccc(C(=O)CC(O)CCC(C)C2OC(=O)CC(O)CC(=O)CC(O)CC(O)CC(O)CC(O)CC3(O)CC(O)C(C(=O)OC)C(CC(OC4OC(C)C(O)C(NC(=O)CCN5CCCCC5)C4O)C=CC=CC=CC=CC=CC=CC=CC2C)O3)cc1 (stereo not shown) [Partr. A, drawing 32, OCH3]",
    "Quantity Kind": "LD50",
    "Result": "> 30 mg/kg"
  },
  {
    "Compound": "CNc1ccc(C(=O)CC(O)CCC(C)C2OC(=O)CC(O)CC(=O)CC(O)CC(O)CC(O)CC(O)CC3(O)CC(O)C(C(=O)NCCc4ccccn4)C(CC(OC4OC(C)C(O)C(NC(=O)CN(C)C)C4O)C=CC=CC=CC=CC=CC=CC=CC2C)O3)cc1 (stereo not shown) [Partr. A, COCH2N(CH3)2, drawing 50]",
    "Quantity Kind": "LD50",
    "Result": "> 300 mg/kg"
  },
  {
    "Compound": "CNc1ccc(C(=O)CC(O)CCC(C)C2OC(=O)CC(O)CC(=O)CC(O)CC(O)CC(O)CC(O)CC3(O)CC(O)C(C(=O)OC)C(CC(OC4OC(C)C(O)C(NC(=O)CN5CCN(CCO)CC5)C4O)C=CC=CC=CC=CC=CC=CC=CC2C)O3)cc1 (stereo not shown) [Partr. A, drawing 44, OCH3]",
    "Quantity Kind": "LD50",
    "Result": "> 30 mg/kg"
  }
]
